Below, each entry is listed alongside its reported EC50.
- System: Ganoderma boninense
- assay: Microtiter plate growth test of Ganoderma boninense mycelium in potato-dextrose broth, absorption by photometer
- Type: cell-based
- test.settings: Ganoderma boninense, 312 h, G. boninense, low mycelial density, after 13 days; read-out: MEC50s (mean EC50 data)
Please reply with the bare figure in µg/mL and do not write the unit itself.

molecule: Cc1nn(C)c(F)c1C(=O)Nc1ccccc1C(C)CC(C)C (stereo not drawn)
reading: 0.015

Fill blank: measured EC50 of the molecule CC(C)(C)C(O)C(Oc1ccc(-c2ccccc2)cc1)n1cncn1 (stereo not drawn) is ____.
0.121

Which EC50 is listed for `O=c1c2cc(F)ccc2nc(-n2cncn2)n1-c1ccc(Cl)cc1Cl` ?
0.066

Give its EC50 value. Item: CC(C)(C)C(O)C(Oc1ccc(Cl)cc1)n1cncn1 (stereo not drawn)
0.098

What EC50 value was documented for this molecule, CC(C)(C)C(O)(CCc1ccc(Cl)cc1)Cn1cncn1 (stereo not drawn) ?
0.007

Record request: EC50 value, item OC(Cc1ccccc1Cl)(Cn1nc[nH]c1=S)C1(Cl)CC1 (stereo not drawn)
0.014

If you can, please state the reported EC50 value of `Cn1cc(C(=O)Nc2ccc(F)cc2-c2ccc(Cl)c(Cl)c2)c(C(F)F)n1` .
0.096

EC50 lookup needed for `CON=C(C(=O)OC)c1ccccc1CON=C(C)c1cccc(C(F)(F)F)c1` , thanks.
0.02

Please report the recorded EC50 for `CO/N=C(/C1=NOCCO1)c1ccccc1Oc1ncnc(Oc2ccccc2Cl)c1F` .
0.158
